Measured pIC50 values are reported for all entries that follow.
target: myocardial ATP-sensitive potassium channel (SUR2A/Kir6.2) (UniProt Q61743+Q63563); experiment: Rubidium efflux test on HEK293 cells transfected with SUR2A and Kir6.2 (myocardial action); conditions: HEK293 cells transfected with SUR2A/Kir6.2; KATP channels opened by rilmakalim; 25 min incubation; read-out: IC50 values for the inhibition of the rubidium efflux
Sequence (Q63563 whole entry): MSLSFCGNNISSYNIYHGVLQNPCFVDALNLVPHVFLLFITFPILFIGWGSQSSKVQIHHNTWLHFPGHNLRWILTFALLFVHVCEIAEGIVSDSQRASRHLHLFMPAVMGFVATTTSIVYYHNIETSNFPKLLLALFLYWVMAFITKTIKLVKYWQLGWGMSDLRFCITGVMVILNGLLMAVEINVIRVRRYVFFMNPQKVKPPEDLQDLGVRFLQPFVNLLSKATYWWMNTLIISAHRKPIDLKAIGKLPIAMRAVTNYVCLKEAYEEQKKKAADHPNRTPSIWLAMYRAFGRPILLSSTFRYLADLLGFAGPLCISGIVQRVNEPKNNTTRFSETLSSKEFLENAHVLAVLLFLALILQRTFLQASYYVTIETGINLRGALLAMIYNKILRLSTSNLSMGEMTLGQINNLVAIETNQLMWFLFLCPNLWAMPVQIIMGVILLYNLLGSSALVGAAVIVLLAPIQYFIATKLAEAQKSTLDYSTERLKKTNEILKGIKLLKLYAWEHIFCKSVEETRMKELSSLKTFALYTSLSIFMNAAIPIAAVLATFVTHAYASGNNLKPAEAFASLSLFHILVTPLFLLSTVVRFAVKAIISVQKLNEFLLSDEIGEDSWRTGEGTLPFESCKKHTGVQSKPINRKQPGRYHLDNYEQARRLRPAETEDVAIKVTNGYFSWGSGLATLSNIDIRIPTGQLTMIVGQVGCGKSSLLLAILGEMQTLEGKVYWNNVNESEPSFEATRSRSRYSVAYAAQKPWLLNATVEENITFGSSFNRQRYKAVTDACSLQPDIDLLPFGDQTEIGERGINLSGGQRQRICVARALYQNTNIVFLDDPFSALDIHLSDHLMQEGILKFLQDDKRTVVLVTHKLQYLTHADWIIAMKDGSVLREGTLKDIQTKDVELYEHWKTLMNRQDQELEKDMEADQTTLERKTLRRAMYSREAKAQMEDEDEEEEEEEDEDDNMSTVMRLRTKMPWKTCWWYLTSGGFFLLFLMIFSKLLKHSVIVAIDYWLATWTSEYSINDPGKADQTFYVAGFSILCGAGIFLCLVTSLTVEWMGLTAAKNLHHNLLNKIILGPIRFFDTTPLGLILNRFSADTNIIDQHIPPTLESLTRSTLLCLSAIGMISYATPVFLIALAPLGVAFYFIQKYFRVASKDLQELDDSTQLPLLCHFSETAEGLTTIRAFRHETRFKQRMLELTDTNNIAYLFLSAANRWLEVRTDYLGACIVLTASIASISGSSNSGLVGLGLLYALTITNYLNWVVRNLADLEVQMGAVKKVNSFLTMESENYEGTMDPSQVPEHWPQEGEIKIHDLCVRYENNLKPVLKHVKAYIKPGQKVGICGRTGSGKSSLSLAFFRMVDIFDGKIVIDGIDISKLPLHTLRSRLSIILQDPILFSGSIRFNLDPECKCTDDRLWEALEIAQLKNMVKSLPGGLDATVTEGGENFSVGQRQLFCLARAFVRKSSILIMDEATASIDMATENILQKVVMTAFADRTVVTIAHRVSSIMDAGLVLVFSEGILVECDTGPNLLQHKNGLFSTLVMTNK
Sequence (Q61743 whole entry): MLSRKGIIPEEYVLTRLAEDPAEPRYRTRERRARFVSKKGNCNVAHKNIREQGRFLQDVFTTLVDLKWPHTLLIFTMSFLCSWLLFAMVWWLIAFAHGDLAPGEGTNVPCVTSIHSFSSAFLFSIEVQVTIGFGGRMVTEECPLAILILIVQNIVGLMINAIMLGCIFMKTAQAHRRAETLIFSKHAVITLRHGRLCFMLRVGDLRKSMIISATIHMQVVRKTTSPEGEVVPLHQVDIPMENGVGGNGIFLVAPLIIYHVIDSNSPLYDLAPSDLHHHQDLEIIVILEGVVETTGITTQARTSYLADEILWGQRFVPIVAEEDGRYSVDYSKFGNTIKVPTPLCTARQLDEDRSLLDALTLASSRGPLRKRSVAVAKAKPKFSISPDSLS
pIC50: −log10 of the molar value.

Recorded pIC50, per entry:
compound	pIC50
O=C(O)C1(c2ccccc2)CCC(OCCC2CC2)(c2ccc(F)cc2)CC1 (stereo not shown)	> 6.00
O=C(O)[C@]1(c2ccccc2)CC[C@@](OCC2CC2)(c2nc(C(F)(F)F)cn2CC2CC2)CC1	> 6.00
Cc1nc([C@]2(OCC3CC3)CC[C@](C(=O)O)(c3ccccc3)CC2)n(CC2CC2)c1-c1ccc(F)cc1	> 6.00

We next turn to a different compound, shown below.
Hello, I am looking for reported pIC50 with myocardial ATP-sensitive potassium channel (SUR2A/Kir6.2) (UniProt Q61743+Q63563) for C=Cc1ccccc1C1(OC)CCC(C(=O)O)(c2ccccc2)CC1 (stereo not shown) . Could you help? > 6.00

Origin of values: patent US8076324B2
